B1: SMARCE1 (parent)
chain: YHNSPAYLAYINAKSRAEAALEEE

# Variants of: B1
# assay_protocol: protein stability index of a GFP-peptide fusion (GPS, HEK-293T) (PSI 1-6); higher = more stable;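 note: lentivirally expressed fusions sorted by FACS into six bins by GFP to DsRed ratio, PSI derived from sequencing read proportions per bin multiplied by bin number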
# measurement_parameters: c terminus: a fixed tail appended
measured_endpoint: protein stability index
When you answer, write just the number.

| mutation | numeric_readout |
| --- | --- |
| E23T | 3.01 |
| E24A | 2.12 |
| Y1D | 5.28 |
| A9G | 2.19 |
| L21K | 2.51 |

Incoming: Given `N3S` , state its recorded protein stability index.
Outgoing: 1.81
